This listing pairs compounds with measured IC50.
ASSAYED SYSTEM: EHD4^ΔN (Mus musculus, UniProt Q9EQP2)
Construct: mouse EHD4 (Uniprot Q1MWP8, residues 22–541, EHD4^ΔN); His6 followed by PreScission cleavage site (N, cleaved yes); made in house; host or cells: E. coli BL21 DE3 Rosetta
Sequence (Q9EQP2 22-541): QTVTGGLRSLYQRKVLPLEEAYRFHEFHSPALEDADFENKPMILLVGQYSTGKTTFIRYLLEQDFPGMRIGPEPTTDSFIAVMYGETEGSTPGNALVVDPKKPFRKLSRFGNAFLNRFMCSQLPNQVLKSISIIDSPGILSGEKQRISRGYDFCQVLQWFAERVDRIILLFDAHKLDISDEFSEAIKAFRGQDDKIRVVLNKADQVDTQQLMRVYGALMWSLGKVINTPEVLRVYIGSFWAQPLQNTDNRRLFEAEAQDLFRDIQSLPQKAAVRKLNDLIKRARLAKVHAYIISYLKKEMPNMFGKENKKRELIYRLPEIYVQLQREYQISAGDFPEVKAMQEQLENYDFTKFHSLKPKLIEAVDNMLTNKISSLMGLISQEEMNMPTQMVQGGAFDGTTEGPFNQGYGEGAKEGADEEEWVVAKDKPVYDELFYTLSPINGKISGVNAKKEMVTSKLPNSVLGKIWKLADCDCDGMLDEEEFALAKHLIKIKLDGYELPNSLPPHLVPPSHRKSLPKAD
ASSAY DETAILS: Malachite green (MLG)-based liposome-stimulated ATPase assay of EHD4ΔN
Assay type: biochemical
MEASUREMENT SETUP: repurchased compounds; read-out: IC50, EHD4ΔN ATPase inhibition
Please state the value followed by its unit.

Asked: Please report the measured IC50 for O=C(CCCCCn1sc2ccccc2c1=O)Nc1ccccc1O
Given back: 2.4 µM

Asked: For the compound Oc1cc2c(cc1C(c1ccc(C(F)(F)F)cc1)N1CCOCC1)OCO2 (stereo not drawn) , give its measured IC50 value.
Given back: 4.8 µM

Asked: Return value of IC50 for input Cc1csc(NC(=O)c2cccc(Oc3ccccc3)c2)n1 , no commentary.
Given back: 4.9 µM

====

ASSAYED SYSTEM: EHD4^ΔN (Mus musculus, UniProt Q9EQP2)
Construct: mouse EHD4 (Uniprot Q1MWP8, residues 22–541, EHD4^ΔN); His6 followed by PreScission cleavage site (N, cleaved yes); made in house; host or cells: E. coli BL21 DE3 Rosetta
ASSAY DETAILS: Malachite green (MLG)-based liposome-stimulated ATPase assay of EHD4ΔN
Type: biochemical
MEASUREMENT SETUP: compounds picked from the drug library; duplicates; inhibitor 0.125 μM to 50 μM; 200 nM EHD4ΔN, 30 μM ATP, 50 μg/ml DOPS; read-out: IC50, EHD4ΔN ATPase inhibition
EXPERIMENTAL ENDPOINT: IC50 (µM)
Output spec: scalar in µM, unitless text.

Examples with answers:
>  <COMPOUND>
Cc1csc(NC(=O)c2cccc(Oc3ccccc3)c2)n1

>  <RESULT UNIT>
µM

>  <IC50>
3.8

$$$$
>  <COMPOUND>
Oc1cc2c(cc1C(c1ccc(C(F)(F)F)cc1)N1CCOCC1)OCO2 (stereo not drawn)

>  <RESULT UNIT>
µM

>  <IC50>
2.9

$$$$

Shifting focus to the compound that follows.
Asked: Quote IC50 reported for O=C(CCCCCn1sc2ccccc2c1=O)Nc1ccccc1O please.
Given back: 0.92
